Target: T1, Furin (recombinant, truncated) (mouse), P23188
T1 chain: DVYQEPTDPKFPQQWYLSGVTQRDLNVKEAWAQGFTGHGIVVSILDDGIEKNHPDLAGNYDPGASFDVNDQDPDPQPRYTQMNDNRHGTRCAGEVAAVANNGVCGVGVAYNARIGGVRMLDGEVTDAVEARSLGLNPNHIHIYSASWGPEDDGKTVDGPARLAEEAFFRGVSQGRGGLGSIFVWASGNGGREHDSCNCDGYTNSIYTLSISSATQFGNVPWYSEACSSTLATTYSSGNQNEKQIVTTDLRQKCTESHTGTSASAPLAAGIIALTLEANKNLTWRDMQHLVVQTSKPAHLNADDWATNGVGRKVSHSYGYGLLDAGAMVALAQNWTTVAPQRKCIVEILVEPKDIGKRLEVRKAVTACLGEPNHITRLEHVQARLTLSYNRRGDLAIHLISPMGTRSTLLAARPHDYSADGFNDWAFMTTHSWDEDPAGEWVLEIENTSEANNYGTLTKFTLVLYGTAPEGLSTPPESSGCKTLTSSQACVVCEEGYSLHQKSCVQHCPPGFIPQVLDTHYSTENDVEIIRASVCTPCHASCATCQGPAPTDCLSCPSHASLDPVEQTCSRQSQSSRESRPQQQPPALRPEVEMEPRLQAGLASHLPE
Conditions: modification not given
Value Kind: Ki (µM)
Note: unit µM is implicit; provide only the numeric part.

input: Query: Ki; subject: Ac-KRKRRR-NH2 [Ac-KRKRRR-NH2]
output: 1.6
